assayed target: Fuc(a1-2)Gal(b1-3)GlcNAc
measurement notes: glycan array binding signal (z-score within array); higher = stronger binding
reported conditions: glycan notation: IUPAC condensed, linker removed
This excerpt belongs to a sample that is enriched for the strongest signals.
Items are presented alongside their recorded glycan array binding signal (z-score).
Answer as a number with no unit attached.

binder	observed measurement
CBM40 CPF071 (Clostridium perfringens) (protein) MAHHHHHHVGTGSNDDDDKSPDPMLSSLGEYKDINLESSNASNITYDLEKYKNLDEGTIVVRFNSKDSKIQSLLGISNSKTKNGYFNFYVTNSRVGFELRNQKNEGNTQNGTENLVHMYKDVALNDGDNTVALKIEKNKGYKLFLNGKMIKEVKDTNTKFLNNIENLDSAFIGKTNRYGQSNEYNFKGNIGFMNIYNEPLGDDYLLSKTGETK	-0.384

Field: next binder
Problem: Value lookup for glycan array binding signal (z-score); key = SLP (Clostridium difficile), Q183M8 (protein) MATTGTQGYTVVKNDWKKAVKQLQDGLKDNSIGKITVSFNDGVVGEVAPKSANKKADRDAAAEKLYNLVNTQLDKLGDGDYVDFSVDYNLENKIITNQADAEAIVTKLNSLNEKTLIDIATKDTFGMVSKTQDSEGKNVAATKALKVKDVATFGLKSGGSEDTGYVVEMKAGAVEDKYGKVGDSTAGIAINLPSTGLEYAGKGTTIDFNKTLKVDVTGGSTPSAVAVSGFVTKDDTDLAKSGTINVRVINAKEESIDIDASSYTSAENLAKRYVFDPDEISEAYKAIVALQNDGIESNLVQLVNGKYQVIFYPEGKRLETKSLEHHHHHH
Result: -0.17
